Test: activity coefficient (dimensionless); of the first substance listed, at infinite dilution; xn = mol fraction of the nth substance listed
Conditions: 358.15 K; 101 kPa; Liquid; Chromatography; x1 = 0
As shown below, each of these compounds has a reported activity coefficient value.
measured quantity: activity coefficient

{"compound": "C1CCCCCCC1 [cyclooctane] + CCCC[n+]1cccc(C)c1.O=S(=O)([O-])C(F)(F)F", "quantitative readout": 15.7}
{"compound": "CCCCCC [hexane] + CCCC[n+]1cccc(C)c1.O=S(=O)([O-])C(F)(F)F", "quantitative readout": 19.1}
{"compound": "Cc1ccc(C)cc1 [1,4-dimethylbenzene] + CCCC[n+]1cccc(C)c1.O=S(=O)([O-])C(F)(F)F", "quantitative readout": 2.68}
{"compound": "Cc1ccccc1 [toluene] + CCCC[n+]1cccc(C)c1.O=S(=O)([O-])C(F)(F)F", "quantitative readout": 1.88}
{"compound": "CCC(=O)CC [pentan-3-one] + CCCC[n+]1cccc(C)c1.O=S(=O)([O-])C(F)(F)F", "quantitative readout": 1.48}
{"compound": "CCCCCCCC [octane] + CCCC[n+]1cccc(C)c1.O=S(=O)([O-])C(F)(F)F", "quantitative readout": 36.2}
{"compound": "CC(C)=O [acetone] + CCCC[n+]1cccc(C)c1.O=S(=O)([O-])C(F)(F)F", "quantitative readout": 0.783}
{"compound": "CCCCC [pentane] + CCCC[n+]1cccc(C)c1.O=S(=O)([O-])C(F)(F)F", "quantitative readout": 14.1}
{"compound": "C#CCCCCC [1-heptyne] + CCCC[n+]1cccc(C)c1.O=S(=O)([O-])C(F)(F)F", "quantitative readout": 4.53}
{"compound": "CCCCCCCCC [nonane] + CCCC[n+]1cccc(C)c1.O=S(=O)([O-])C(F)(F)F", "quantitative readout": 49.9}
{"compound": "c1ccccc1 [benzene] + CCCC[n+]1cccc(C)c1.O=S(=O)([O-])C(F)(F)F", "quantitative readout": 1.31}

---

Test: activity coefficient (dimensionless); of the first substance listed, at infinite dilution; xn = mol fraction of the nth substance listed
Conditions: 308.15 K; 101 kPa; Liquid; Chromatography; x1 = 0
Measured activity coefficient accompanies every entry in the list below.
measured quantity: activity coefficient

{"compound": "c1ccccc1 [benzene] + CCCC[n+]1cccc(C)c1.O=S(=O)([O-])C(F)(F)F", "measured quantity": "activity coefficient", "quantitative readout": 1.2}
{"compound": "CCCCCCCC [octane] + CCCC[n+]1cccc(C)c1.O=S(=O)([O-])C(F)(F)F", "measured quantity": "activity coefficient", "quantitative readout": 49.6}
{"compound": "C=CCCC [1-pentene] + CCCC[n+]1cccc(C)c1.O=S(=O)([O-])C(F)(F)F", "measured quantity": "activity coefficient", "quantitative readout": 8.67}
{"compound": "C1CCCCCC1 [cycloheptane] + CCCC[n+]1cccc(C)c1.O=S(=O)([O-])C(F)(F)F", "measured quantity": "activity coefficient", "quantitative readout": 16.4}
{"compound": "C1CCOC1 [tetrahydrofuran] + CCCC[n+]1cccc(C)c1.O=S(=O)([O-])C(F)(F)F", "measured quantity": "activity coefficient", "quantitative readout": 1.19}
{"compound": "C#CCCCCC [1-heptyne] + CCCC[n+]1cccc(C)c1.O=S(=O)([O-])C(F)(F)F", "measured quantity": "activity coefficient", "quantitative readout": 4.09}
{"compound": "CCCCCCCCCC [decane] + CCCC[n+]1cccc(C)c1.O=S(=O)([O-])C(F)(F)F", "measured quantity": "activity coefficient", "quantitative readout": 104}
{"compound": "CC(C)=O [acetone] + CCCC[n+]1cccc(C)c1.O=S(=O)([O-])C(F)(F)F", "measured quantity": "activity coefficient", "quantitative readout": 0.743}
{"compound": "CCCCCCCCC [nonane] + CCCC[n+]1cccc(C)c1.O=S(=O)([O-])C(F)(F)F", "measured quantity": "activity coefficient", "quantitative readout": 71.7}
{"compound": "C=CCCCCCC [oct-1-ene] + CCCC[n+]1cccc(C)c1.O=S(=O)([O-])C(F)(F)F", "measured quantity": "activity coefficient", "quantitative readout": 24.3}
{"compound": "CCCCCCC [heptane] + CCCC[n+]1cccc(C)c1.O=S(=O)([O-])C(F)(F)F", "measured quantity": "activity coefficient", "quantitative readout": 35.1}
{"compound": "C=CCCCCC [1-heptene] + CCCC[n+]1cccc(C)c1.O=S(=O)([O-])C(F)(F)F", "measured quantity": "activity coefficient", "quantitative readout": 17.1}

---

Assay: activity coefficient (dimensionless); of the first substance listed, at infinite dilution; xn = mol fraction of the nth substance listed
Details: 318.15 K; 101 kPa; Liquid; Chromatography; x1 = 0
Please enter Condition met where activity coefficient is greater than or equal to 2, and Condition not met where it is lower.

{"compound": "C=CCCCCC [1-heptene] + CCCC[n+]1cccc(C)c1.O=S(=O)([O-])C(F)(F)F", "class assignment": "Condition met"}
{"compound": "c1ccccc1 [benzene] + CCCC[n+]1cccc(C)c1.O=S(=O)([O-])C(F)(F)F", "class assignment": "Condition not met"}
{"compound": "COC(C)(C)C [2-methoxy-2-methylpropane] + CCCC[n+]1cccc(C)c1.O=S(=O)([O-])C(F)(F)F", "class assignment": "Condition met"}
{"compound": "CCCCCC [hexane] + CCCC[n+]1cccc(C)c1.O=S(=O)([O-])C(F)(F)F", "class assignment": "Condition met"}
{"compound": "Cc1ccccc1C [1,2-dimethylbenzene] + CCCC[n+]1cccc(C)c1.O=S(=O)([O-])C(F)(F)F", "class assignment": "Condition met"}
{"compound": "CCC(=O)CC [pentan-3-one] + CCCC[n+]1cccc(C)c1.O=S(=O)([O-])C(F)(F)F", "class assignment": "Condition not met"}
{"compound": "Cc1ccc(C)cc1 [1,4-dimethylbenzene] + CCCC[n+]1cccc(C)c1.O=S(=O)([O-])C(F)(F)F", "class assignment": "Condition met"}
{"compound": "CCc1ccccc1 [ethylbenzene] + CCCC[n+]1cccc(C)c1.O=S(=O)([O-])C(F)(F)F", "class assignment": "Condition met"}

---

Test: activity coefficient (dimensionless); of the first substance listed, at infinite dilution; xn = mol fraction of the nth substance listed
Settings: 308.15 K; 101 kPa; Liquid; Chromatography; x1 = 0
Quick rule for you: activity coefficient at 9 or higher means Fulfilled, lower means Not fulfilled.

{"compound": "CCCCC [pentane] + CCCC[n+]1cccc(C)c1.O=S(=O)([O-])C(F)(F)F", "class assignment": "Fulfilled"}
{"compound": "CCOCC [diethyl ether] + CCCC[n+]1cccc(C)c1.O=S(=O)([O-])C(F)(F)F", "class assignment": "Not fulfilled"}
{"compound": "C=CCCCC [hex-1-ene] + CCCC[n+]1cccc(C)c1.O=S(=O)([O-])C(F)(F)F", "class assignment": "Fulfilled"}
{"compound": "COC(C)(C)C [2-methoxy-2-methylpropane] + CCCC[n+]1cccc(C)c1.O=S(=O)([O-])C(F)(F)F", "class assignment": "Not fulfilled"}
{"compound": "C1CCCC1 [cyclopentane] + CCCC[n+]1cccc(C)c1.O=S(=O)([O-])C(F)(F)F", "class assignment": "Fulfilled"}

---

Test: activity coefficient (dimensionless); of the first substance listed, at infinite dilution; xn = mol fraction of the nth substance listed
Conditions: 318.15 K; 101 kPa; Liquid; Chromatography; x1 = 0
Known activity coefficient of a selection of compounds
measured quantity: activity coefficient

{"compound": "CCCO [propan-1-ol] + CCCC[n+]1cccc(C)c1.O=S(=O)([O-])C(F)(F)F", "quantitative readout": 1.11}
{"compound": "C#CCCCC [1-hexyne] + CCCC[n+]1cccc(C)c1.O=S(=O)([O-])C(F)(F)F", "quantitative readout": 2.94}
{"compound": "C1CCCCCC1 [cycloheptane] + CCCC[n+]1cccc(C)c1.O=S(=O)([O-])C(F)(F)F", "quantitative readout": 15.4}
{"compound": "Cc1cccc(C)c1 [1,3-dimethylbenzene] + CCCC[n+]1cccc(C)c1.O=S(=O)([O-])C(F)(F)F", "quantitative readout": 2.57}
{"compound": "CC(C)=O [acetone] + CCCC[n+]1cccc(C)c1.O=S(=O)([O-])C(F)(F)F", "quantitative readout": 0.752}
{"compound": "C1CCCC1 [cyclopentane] + CCCC[n+]1cccc(C)c1.O=S(=O)([O-])C(F)(F)F", "quantitative readout": 8.89}
{"compound": "C=CCCCC [hex-1-ene] + CCCC[n+]1cccc(C)c1.O=S(=O)([O-])C(F)(F)F", "quantitative readout": 11.5}
{"compound": "C#CCCCCC [1-heptyne] + CCCC[n+]1cccc(C)c1.O=S(=O)([O-])C(F)(F)F", "quantitative readout": 4.18}

Sourced from the NIST ThermoML archive (doi:10.1021/je1000582)
